# pIC50 values compiled below
Target: Cbl-b (Homo sapiens)
Assay: Cbl-b activity assay (Cbl-b inhibition assay), TR-FRET of Cbl-b interaction with UbcH5B-Ub
Assay type: biochemical
Settings: assay buffer with 100 mM NaCl, 60 nM Src kinase; read-out: Cbl-b activity IC50
pIC50: −log10 of the molar value.

* C[C@H](c1cc2c(c(C(F)(F)F)c1)CN(c1cccc(C3([C@H](F)c4nncn4C)COC3)c1)C2=O)N1CCC2(CC2)C1 (single isomer, unassigned) [Compound 516] | > 7.00
* C[C@H](Sc1nncn1C)c1cccc(NC(=O)c2cc(CCO)ccn2)c1 | 5.52 to 6.00

stdin: Which pIC50 value belongs to Cn1cnnc1CC1(c2cccc(N3Cc4c(cc(CN5CCN6C(=O)CCC6C5)cc4C(F)(F)F)C3=O)c2)COC1 (centres unmarked) ?
stdout: > 7.00

stdin: // same read-out, input: Cn1cnnc1CC1(c2cccc(N3Cc4c(cc(CN5Cc6ccc(F)cc6C5)cc4C(F)(F)F)C3=O)c2)COC1
stdout: > 7.00

stdin: Would you mind doing CC(O)c1cc2c(c(C(F)(F)F)c1)CN(c1cccc([C@H](C)Cc3nncn3C)c1)C2=O (some centres unmarked) as well?
stdout: > 7.00

* * *

Target: Cbl-b (Homo sapiens, UniProt Q13191)
Sequence (Q13191 36-427): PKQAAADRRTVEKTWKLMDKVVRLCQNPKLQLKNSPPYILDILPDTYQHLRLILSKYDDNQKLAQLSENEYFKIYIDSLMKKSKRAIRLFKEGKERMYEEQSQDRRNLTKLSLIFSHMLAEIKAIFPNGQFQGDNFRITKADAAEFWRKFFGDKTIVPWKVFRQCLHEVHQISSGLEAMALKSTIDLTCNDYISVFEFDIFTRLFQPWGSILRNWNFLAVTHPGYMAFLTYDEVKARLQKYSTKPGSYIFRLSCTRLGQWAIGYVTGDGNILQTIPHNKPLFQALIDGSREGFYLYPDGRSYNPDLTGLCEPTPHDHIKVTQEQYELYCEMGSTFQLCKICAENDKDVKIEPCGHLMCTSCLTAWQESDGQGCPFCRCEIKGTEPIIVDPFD
Test: Cbl-b activity assay (Cbl-b inhibition assay), TR-FRET of Cbl-b interaction with UbcH5B-Ub
Type: biochemical
Conditions: assay buffer with 100 mM NaCl, 60 nM Src kinase; read-out: Cbl-b activity IC50
Reported IC50 by item:

Worked set:
• Cc1ncc(C(=O)Nc2cccc([C@H](C)Sc3nncn3C)c2)nc1C1CC1 [Compound 70] = 100 to 300 nM
• C[C@H](Cc1ncco1)c1cccc(N2Cc3c(cccc3C(F)(F)F)C2=O)c1 [Compound 261] = 3000 to 10000 nM
• CC(Sc1nncn1C)c1cccc(N2Cc3ccc(Cl)cc3C2=O)c1 (stereo not shown) [Compound 163] = 3000 to 10000 nM

stdin: For the compound shown here, C[C@H](O)CNc1cc([C@H](C)Cc2nncn2C)cc(N2Cc3c(cccc3C(F)(F)F)C2=O)n1 [Compound 364] , give the reported IC50.
stdout: 301 to 1000 nM

* * *

Test system: T-cell
Assay: IL-2 secretion from T-cells stimulated with anti-CD3 antibody alone (Biological Example 2)
Assay type: cell-based
Conditions: 1 μM compound, primary human total T-cells, read-out: IL-2 secretion, Anti-CD3 stimulation, fold change over baseline
MEASUREMENT LABEL: fold induction at 1 µM

* C[C@@H](c1cc2c(c(C(F)(F)F)c1)CN(c1cccc([C@@](C)(F)C(F)(F)c3nncn3C)c1)C2=O)N1CC[C@H](F)C1 | > 0.201
* Cn1cnnc1C(F)(F)[C@@](C)(F)c1cccc(N2Cc3c(cc(CN4CC[C@H](F)C4)cc3C(F)(F)F)C2=O)c1 | 0.051 to 0.1
* Cn1cnnc1CC1(c2cccc(N3Cc4c(cc(CN5CC(C)(F)C5)cc4C(F)(F)F)C3=O)c2)COC1 | > 0.201

stdin: Any idea what its fold induction at 1 µM is? The compound is C[C@H](Cc1nncn1C)c1cccc(N2Cc3c(cc([C@H]4CCCNC4)cc3C(F)(F)F)C2=O)c1
stdout: > 0.201

stdin: Try the compound Cn1cnnc1CC1(c2cccc(NC(=O)c3cc(CN4C[C@H]5C[C@H]5C4)cc(C4CC4)n3)c2)COC1
stdout: > 0.201

stdin: For C[C@H](c1cc2c(c(C(F)(F)F)c1)CN(c1cccc([C@@](C)(F)C(F)(F)c3nncn3C)c1)C2=O)N1CC[C@H](F)C1 then?
stdout: > 0.201

stdin: Would you mind doing Cc1c[nH]nc1C[C@@H](C)c1cccc(N2Cc3c(cc(C(=O)N4CCC(O)C4)cc3C(F)(F)F)C2=O)c1 (stereo in doubt) as well?
stdout: 0.101 to 0.15

stdin: Moving on to C[C@H](Cc1nncn1C)c1cccc(N2Cc3c(cc(C4CC4)nc3C3CC3)C2=O)c1
stdout: 0.051 to 0.1

// provenance: patent US20220324835A1
